Biological target: DLG4_3, P78352
Sequence (P78352 306-403): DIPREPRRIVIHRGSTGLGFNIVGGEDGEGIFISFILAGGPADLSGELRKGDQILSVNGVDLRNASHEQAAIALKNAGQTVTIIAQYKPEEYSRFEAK
Test: holdup assay
Parameters: key: below the threshold = too weak to quantify, mostly under pKd 3.1 to 4
Settings: plain residues with an end cap or a label only (N-terminal biotin on a linker: ado-ado)
The label depends only on pKd: True if it is at least 4, False if it is smaller.

Answered examples (4):
GIKKITSTAL [RPS6KA3, P51812] | False
KPGKGSETVV [FZD4, Q9ULV1] | False
MQHQRTHTRV [ZSCAN30, Q86W11] | True
GEDRSPPTAL [MKNK1, Q9BUB5] | False

Next item in the queue.
Prompt: # check: pKd of LESTTVGTSV [KARS1, Q15046] is greater than or equal to 4
Response: False
